Kindly supply the reported Mean % WT Binding values for the records listed here.
# study-system: human CD33 Y59A (human, UniProt P20138 18-364)
# Sequence (P20138 18-364 Y59A limits assumed): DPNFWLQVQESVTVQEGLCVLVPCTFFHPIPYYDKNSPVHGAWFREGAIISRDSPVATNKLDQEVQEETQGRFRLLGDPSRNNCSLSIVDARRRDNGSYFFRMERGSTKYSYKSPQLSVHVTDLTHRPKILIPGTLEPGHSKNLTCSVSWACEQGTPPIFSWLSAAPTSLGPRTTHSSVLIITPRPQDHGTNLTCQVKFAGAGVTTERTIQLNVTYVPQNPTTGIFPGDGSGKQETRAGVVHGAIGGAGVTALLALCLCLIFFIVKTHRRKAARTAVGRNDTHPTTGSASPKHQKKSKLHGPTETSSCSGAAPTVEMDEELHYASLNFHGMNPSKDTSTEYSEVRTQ
# assay-details: alanine scan, flow cytometry;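 further: HEK293-T cells transiently expressing single-residue alanine mutants of CD33 (alanine swapped to serine), antibody binding read by fluorescence in duplicate, background-subtracted, expressed relative to wild-type CD33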
Answers are plain numbers, in % WT.

INSERT INTO assay_data (binder, property_measured, numeric_result) VALUES
  ('Refmab #4 (antibody, V domains shown, Full-length format is human IgG1 Fc silent (PG-LALA); The alanine scan used IgG or Fab) VH: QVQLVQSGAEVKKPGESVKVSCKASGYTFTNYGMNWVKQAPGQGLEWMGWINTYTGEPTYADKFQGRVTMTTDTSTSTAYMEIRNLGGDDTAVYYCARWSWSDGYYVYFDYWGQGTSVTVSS VL: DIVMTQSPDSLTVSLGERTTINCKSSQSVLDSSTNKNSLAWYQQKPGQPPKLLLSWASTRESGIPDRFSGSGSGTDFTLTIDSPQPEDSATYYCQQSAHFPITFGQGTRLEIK', 'Mean % WT Binding', 97.6);

Your task in this section: give Mean % WT Binding for each listed record.
1. Refmab #1 (antibody, V domains shown, Full-length format is human IgG1 (Absolute Antibody Ab00283-10.0); The alanine scan used IgG or Fab; also called hP67.6) VH: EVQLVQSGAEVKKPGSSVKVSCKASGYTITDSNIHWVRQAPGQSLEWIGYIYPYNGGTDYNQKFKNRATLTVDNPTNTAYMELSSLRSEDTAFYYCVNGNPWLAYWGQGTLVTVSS VL: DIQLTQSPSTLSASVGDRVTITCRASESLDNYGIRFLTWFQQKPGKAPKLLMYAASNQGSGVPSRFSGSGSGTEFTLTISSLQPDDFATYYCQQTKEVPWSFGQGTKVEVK
2. Refmab #3 (antibody, V domains shown, Full-length format is human IgG1 Fc silent (PG-LALA); The alanine scan used IgG or Fab) VH: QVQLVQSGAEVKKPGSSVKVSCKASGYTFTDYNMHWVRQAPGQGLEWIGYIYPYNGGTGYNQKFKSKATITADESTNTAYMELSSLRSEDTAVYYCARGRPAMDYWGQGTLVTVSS VL: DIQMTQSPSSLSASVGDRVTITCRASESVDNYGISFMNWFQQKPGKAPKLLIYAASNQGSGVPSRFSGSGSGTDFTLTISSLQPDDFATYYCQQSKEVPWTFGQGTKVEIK
3. Refmab #2 (antibody, V domains shown, Full-length format is human IgG1 Fc silent (PG-LALA); The alanine scan used IgG or Fab) VH: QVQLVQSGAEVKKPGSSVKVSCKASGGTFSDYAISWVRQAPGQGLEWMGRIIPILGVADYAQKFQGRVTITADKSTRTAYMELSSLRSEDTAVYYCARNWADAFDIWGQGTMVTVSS VL: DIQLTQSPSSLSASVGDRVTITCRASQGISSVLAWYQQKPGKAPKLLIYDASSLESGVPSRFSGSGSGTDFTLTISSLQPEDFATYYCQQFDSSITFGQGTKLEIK

OUTPUT:
[93.6, 145, 95.7]
